Reported %Inh values are given for each entry in this list.
Test system: PLK3;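 note: KINOMEscan kinase panel screen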
Details: concentration: 1 μM, replicates: in singlicate; n = 1
reported_endpoint: %Inh

>  <compound>
COc1ccc(Nc2nccc(N3CCC(NC(=O)Nc4cccc(OC)c4)C3)n2)cc1 (stereo not drawn) [GSK1379742]

>  <reported_endpoint>
%Inh

>  <result>
0%

$$$$
>  <compound>
O=C(Nc1n[nH]c2cc(-c3ccoc3)ccc12)C1CC1 [SB-738481]

>  <reported_endpoint>
%Inh

>  <result>
12%

$$$$
>  <compound>
c1ccc(Oc2ccc(Nc3ccnc4cc(-c5ccc(CNCCN6CCOCC6)o5)ccc34)cc2)nc1 [GW567145]

>  <reported_endpoint>
%Inh

>  <result>
0%

$$$$
>  <compound>
CCc1ccc(-c2ccc3c(c2)-c2c(cnn2C)S(=O)(=O)N3C)cc1

>  <reported_endpoint>
%Inh

>  <result>
2%

$$$$
>  <compound>
CSc1cccc2c(-c3ccncn3)c(-c3ccc(F)cc3)nn12 [GW514786]

>  <reported_endpoint>
%Inh

>  <result>
0%

$$$$
>  <compound>
COc1ccc(-c2coc3ccc(-c4nnc(SCc5ccc(OC)c(C(F)(F)F)c5)o4)cc23)cc1

>  <reported_endpoint>
%Inh

>  <result>
14%

$$$$
>  <compound>
COc1cc(Nc2ncc3c(C)nc(-c4cc5ccccc5[nH]4)n3n2)cc(OC)c1OC [GW869516]

>  <reported_endpoint>
%Inh

>  <result>
24%

$$$$
>  <compound>
Nc1ncc(-c2ccc3nccc(-c4ccncc4)c3c2)cc1S(=O)(=O)N1CCOCC1 [GSK1627798]

>  <reported_endpoint>
%Inh

>  <result>
0%

$$$$
>  <compound>
Nc1ncnc2c1nc(-c1ccccc1)n2-c1ccccc1 [SKF-97293]

>  <reported_endpoint>
%Inh

>  <result>
16%

$$$$
>  <compound>
Cl.Cl.NCC(C(=O)Nc1cc(Br)c(-c2ccnc3[nH]ccc23)s1)c1ccccc1 (stereo not drawn) [GSK1269851]

>  <reported_endpoint>
%Inh

>  <result>
2%

$$$$
>  <compound>
C[C@@H](Oc1cc(-n2cnc3cc(-c4ccnc(NCCS(C)(=O)=O)c4)ccc32)sc1C(N)=O)c1ccccc1Cl [GSK907232]

>  <reported_endpoint>
%Inh

>  <result>
99.4%

$$$$
>  <compound>
CN(C)Cc1ccc(-c2ccc3c(Nc4ccc(Oc5ccccn5)cc4)ccnc3c2)o1 [GW567148]

>  <reported_endpoint>
%Inh

>  <result>
0%

$$$$
>  <compound>
COc1cccc(C(=O)Nc2cccc(Oc3ccc4nc(NC(=O)C5CC5)cn4n3)c2)c1

>  <reported_endpoint>
%Inh

>  <result>
14%

$$$$
>  <compound>
O=c1[nH]cc(-c2ccc(N3CCOCC3)cc2)c2sc(-c3cn[nH]c3)cc12 [GSK2276055]

>  <reported_endpoint>
%Inh

>  <result>
0%

$$$$
>  <compound>
Nc1n[nH]c2cnc(-c3ccccc3)cc12 [SB-642124]

>  <reported_endpoint>
%Inh

>  <result>
43%

$$$$
>  <compound>
O=C(Nc1cccc(Oc2ccc3nc(NC(=O)C4CC4)cn3n2)c1)c1ccccc1C(F)(F)F

>  <reported_endpoint>
%Inh

>  <result>
4%

$$$$
>  <compound>
Cc1ccc(F)c(C(=O)Nc2cccc(-c3nn4ccccc4c3-c3ccnc(Nc4cccc(F)c4)n3)c2)c1F [GSK361061]

>  <reported_endpoint>
%Inh

>  <result>
9%

$$$$
>  <compound>
Oc1cc(Nc2ccnc3cc(I)ccc23)ccc1F [GW552771]

>  <reported_endpoint>
%Inh

>  <result>
0%

$$$$
